# measurement notes: qHTS assay to test for compound auto fluorescence at 460 nm (blue) in HEK293 cells (AID 720678); also: % is scaled to controls: 0 for no effect and ±100 for the full control effect
# assay context: blue autofluorescence 405/460 nm; series mostly up to 91.3 µM
# Description: National Center for Advancing Translational Sciences [NCATS] NIH Chemical Genomics Center [NCGC] U.S. Environmental Protection Agency [EPA] National Institutes of Environmental Health Sciences [NIEHS] National Toxicology Program [NTP] U.S. Food and Drug Administration [FDA] Compound auto fluorescence often interferes with screening of the compound library against various biological targets and signaling pathways. Some of these compounds may have fluorophoric properties. […]
The source made the active and inactive calls. Calls follow the shape of the dose curve; as a rule, active = well fitted curve in the direction sought with a large enough effect in the repeat runs; inconclusive = weak or mixed curves; inactive = flat fitted curve, though single readings scatter.
attribute measured: fluorescence, % of triamterene

Study these solved cases before continuing.
Can you share its fluorescence, % of triamterene? I mean this compound: `CC(=O)Oc1cccc(O)c1`
inactive

Same read-out for `CS(=O)(=O)c1ccc([C@@H](C[C@H]2CCC(=O)C2)C(=O)Nc2cnccn2)cc1Cl` ?
inactive

Query `CCCCCCCC(=O)Oc1c(Br)cc(C#N)cc1Br` next
inactive

Would you mind doing `CCN(CC)C(=O)N1CCN(C)CC1` as well?
-0.217% [at 18.6 µM] (inactive)

Quick one: CC(C)C(O)C(C)(C)CO (stereo unspecified)
inactive

We next turn to a different compound, shown below.
Given the entry `CCN(Cc1cccc(S(=O)(=O)O)c1)c1ccc(C(=C2C=CC(=[N+](CC)Cc3cccc(S(=O)(=O)O)c3)C=C2)c2ccccc2S(=O)(=O)[O-])cc1` , report its measured fluorescence, % of triamterene.
inactive

---

# system under test: Nuclear receptor subfamily 1 group I member 2 (Homo sapiens) (UniProt O75469)
# Sequence (O75469 whole entry, looked up): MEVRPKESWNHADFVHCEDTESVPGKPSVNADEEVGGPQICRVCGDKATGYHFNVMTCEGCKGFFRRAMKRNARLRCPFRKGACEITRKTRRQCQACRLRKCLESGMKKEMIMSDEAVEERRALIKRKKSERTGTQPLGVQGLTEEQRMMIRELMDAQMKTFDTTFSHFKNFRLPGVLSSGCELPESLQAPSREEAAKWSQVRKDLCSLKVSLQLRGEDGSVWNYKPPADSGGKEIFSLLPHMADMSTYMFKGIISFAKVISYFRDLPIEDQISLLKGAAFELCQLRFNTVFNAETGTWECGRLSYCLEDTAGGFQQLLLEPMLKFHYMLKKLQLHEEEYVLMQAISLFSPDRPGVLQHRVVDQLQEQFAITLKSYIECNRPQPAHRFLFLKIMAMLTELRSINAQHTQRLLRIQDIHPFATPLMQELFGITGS
# measurement notes: Human pregnane X receptor (PXR) small molecule agonists, qHTS assay (AID 1346982); also: % is scaled to controls: 0 for no effect and ±100 for the full control effect; nearly all actives have a fitted effect of over 35% in size
# assay context: PXR-Luc HepG2, CYP3A4 luciferase reporter, 24 h; series mostly up to 92.4 µM
Records with an inconclusive call do not appear. Activity calls are given as the source filed them. Calls follow the shape of the dose curve; as a rule, active = well fitted activation curve with a large enough effect in the repeat runs; inconclusive = weak or mixed curves; inactive = no such curve, though single readings can be large or run the other way.
Lab note: assign the record to one of true (1) = active, false (0) = inactive

Test call, this compound: `CCCCCCOC(=O)CCCCC`
false (0)

Queued: `CNc1c2c(nn1C)CCCC2`
false (0)

---

# measurement notes: qHTS assay to identify small molecule agonists of the peroxisome proliferator-activated receptor delta (PPARd) signaling pathway - cell viability counter screen (AID 743211); also: % is scaled to controls: 0 for no effect and ±100 for the full control effect; nearly all actives have a fitted effect of over 55% in size
# assay context: PPARd-bla HEK293H viability, CellTiter-Glo luminescence, 17 h; series mostly up to 62.6 µM
# Description: U.S. Tox21 Program National Center for Advancing Translational Sciences [NCATS] NIH Chemical Genomics Center [NCGC] U.S. Environmental Protection Agency [EPA] National Institutes of Environmental Health Sciences [NIEHS] National Toxicology Program [NTP] U.S. Food and Drug Administration [FDA] […]
Records with an inconclusive call do not appear. Calls of active or inactive are those of the source. The call rests on the fitted dose curve; in most records, active means well fitted cell-killing curve with a large enough effect in the repeat runs; inconclusive means weak or mixed curves; inactive means no such curve, though single readings can be large or run the other way.
In this exercise, the only acceptable responses are active, inactive

Dear colleague, could you share the recorded outcome for c1ccc(CNc2ncnc3c2ncn3C2CCCCO2)cc1 (stereo not given) when you have a moment?
inactive

Another compound to check: `CCN(CC)C(=O)N1CCN(C)CC1`
inactive

Note, next up: C1=CCC2CC=CC2C1 (stereo not given)
inactive

Now try `CNc1c2c(nn1C)CCCC2` .
inactive

How about this compound: `CC(C)(C)S`
inactive

What do we get for `CC/C=C\C/C=C\C/C=C\CCCCCCCC(=O)OCC` ?
inactive

---

# system under test: Luciferin 4-monooxygenase (Photinus pyralis)
# measurement notes: qHTS assay to identify small molecule inhibitors of firefly luciferase (AID 1224835); also: nearly all actives have a fitted effect of over 25% in size; also: potency is read from the fitted curve at half-maximal effect
# assay context: purified P. pyralis luciferase, luminescence inhibition; series mostly up to 115 µM
Results filed as inconclusive are left out. Active and inactive are the calls of the source. The call rests on the fitted dose curve; in most records, active means well fitted inhibition curve with a large enough effect in the repeat runs; inconclusive means weak or mixed curves; inactive means flat fitted curve, though single readings scatter.
attribute measured: Potency

These solved cases illustrate the format of a correct answer.
Give the measured Potency of `CCOC(=O)N1CCC(Nc2ccc(Cl)cc2N)CC1` .
inactive

Moving on to the next compound: `CCN(CC)c1ccc(C(=C2C=CC(=[N+](CC)CC)C=C2)c2ccc(S(=O)(=O)O)cc2S(=O)(=O)[O-])cc1`
8.94 µM (active)

Continue with `O=C(CCS)OCC(COC(=O)CCS)(COC(=O)CCS)COC(=O)CCS`
inactive

Okay, and `CCC(CO)(CO)CO` ?
inactive

***
Name the recorded Potency for `Nc1nc2ccc(OC(F)(F)F)cc2s1` .
24.5 µM (active)

Further, for CCC1CCC(CCC(=O)O)C1 (stereo unspecified) ?
inactive

---

# measurement notes: qHTS RealTime-Glo MT Cell Viability Assay in HEK293 cells - 40 hour (AID 1224874); also: % is scaled to controls: 0 for no effect and ±100 for the full control effect; nearly all actives have a fitted effect of over 50% in size
# assay context: RealTime-Glo luminescence; active compounds read low
Records with an inconclusive call do not appear.
attribute measured: max response (%)
Output spec: scalar in %, unitless text.

Please look up its max response: `O=C1CC[C@@H](C(=O)O)N1`
0.932

Entry to check: `O=C(O)c1ccc(O)cc1O`
-2.47

Same lookup for CCC1CCC(CCC(=O)O)C1 (configuration not stated) , please.
-15.6

Next: `CCN(Cc1cccc(S(=O)(=O)O)c1)c1ccc(C(=C2C=CC(=[N+](CC)Cc3cccc(S(=O)(=O)O)c3)C=C2)c2ccc(O)cc2S(=O)(=O)[O-])cc1`
8.88

Next up: `O=C1c2ccccc2C(=O)c2c(O)ccc(O)c21`
5.32

Next:
Which max response reading was recorded for the compound CC(C(=O)O)c1ccc(C(=O)c2cccs2)cc1 (configuration not stated) ?
0.273

Try this compound too: `CCCOC(=O)c1c(Cl)c(Cl)c(Cl)c(Cl)c1C(=O)OCCC`
3.32

What do you have for `SCCc1cnccn1` ?
10.1

Queued: `CCCCOC(=O)CCCCC(=O)OCCCC`
0.321

How about `Cc1c(C2(c3cc(Br)c(O)c(Br)c3C)OS(=O)(=O)c3ccccc32)cc(Br)c(O)c1Br` ?
-21.5

Same question for COC(=O)C1=C(C)NC(C)=C(C(=O)OC(C)(C)CN(C)CCC(c2ccccc2)c2ccccc2)C1c1cccc([N+](=O)[O-])c1 (configuration not stated) please.
-18

And CCCCCCC(O)CCOC(C)=O (configuration not stated) ?
0.328

Try this compound next: `O=c1[nH]c2cc(C(F)(F)F)c(N3CCOCC3)cc2n(CP(=O)(O)O)c1=O`
8.28

---

# measurement notes: qHTS assay for small molecule activators of the heat shock response signaling pathway - cell viability counter screen (AID 743209); also: nearly all actives have a fitted effect of over 50% in size
# assay context: HSE-bla HeLa viability, CellTiter-Glo luminescence, 5 h; series mostly up to 62.6 µM
Results filed as inconclusive are left out. Active and inactive are the calls of the source. Calls follow the shape of the dose curve; as a rule, active = well fitted cell-killing curve with a large enough effect in the repeat runs; inconclusive = weak or mixed curves, or effect the other way; inactive = no such curve, though single readings can be large or run the other way.
One label from this list, please: Y = active, N = inactive

Below, 5 compounds whose answers are already recorded.
Tell me the recorded outcome of this test for `O=C1OC(=O)c2c(Br)c(Br)c(Br)c(Br)c21` .
N

And for `CC(=O)NCCO` ?
N

`C[C@H](CS)C(=O)N1CCC[C@H]1C(=O)O` ?
N

Try the compound `O=S(=O)(Cl)c1c(Cl)cccc1Cl`
N

And `O=C(C(=O)c1ccco1)c1ccco1` ?
N

More entries:
Please indicate how the test categorized O=C(NC(Cc1cc(=O)[nH]c2ccccc12)C(=O)O)c1ccc(Cl)cc1 (configuration not stated) .
N

Next record, please: CO[C@@H]1[C@@H](OC)[C@H](C)[C@@](O)(CC(=O)O)O[C@H]1[C@H](C)[C@H]1O[C@@]2(CC[C@@](C)([C@H]3CC[C@@](C)([C@@H]4O[C@@H]([C@H]5O[C@](C)(O)[C@H](C)C[C@@H]5C)C[C@@H]4OC4C[C@H](OC)[C@@H](OC)[C@H](C)O4)O3)O2)C[C@H](O)[C@H]1C (some centres not stated)
Y

---

# measurement notes: A CellTox Green Cytotoxicity Assay to monitor cytotoxicity in HEK293 cells - 40 hour (AID 1224871); also: nearly all actives have a fitted effect of over 45% in size
# assay context: CellTox Green fluorescence; series mostly up to 76.8 µM
Results filed as inconclusive are left out. Calls of active or inactive are those of the source. Calls come from the whole dose curve; as a rule, active = well fitted activation curve with a large enough effect in the repeat runs; inconclusive = weak or mixed curves; inactive = flat fitted curve, though single readings scatter.
Choose one outcome from this list and give only that: label 1 (active), label 0 (inactive)

Previously resolved entries follow.
Tell me the assay call for `Cc1ccc(Nc2c(F)cccc2Cl)c(CC(=O)O)c1` please.
label 0

Consider next the molecule `O=[N+]([O-])C1(Br)COCOC1` in the same way.
label 1

// repeat for `CN(C)CC/C=C1\c2ccccc2Sc2ccc(Cl)cc21` and report
label 1

Would you kindly repeat that for `O=NN(CCCl)C(=O)NCCCl` ?
label 0

New cases:
# fetch the recorded call for `CC[C@H]1OC(=O)[C@H](C)[C@@H](O[C@H]2C[C@@](C)(OC)[C@@H](O)[C@H](C)O2)[C@H](C)[C@@H](O[C@@H]2O[C@H](C)C[C@H](N(C)C)[C@H]2O)[C@](C)(O)C[C@@H](C)C(=O)[C@H](C)[C@@H](O)[C@]1(C)O` here
label 0

And for `CCN(CC)CCOc1ccccc1C(=O)CCc1ccccc1` ?
label 0

Please do the same for `CCCOC(=O)c1c(Cl)c(Cl)c(Cl)c(Cl)c1C(=O)OCCC` as well.
label 0

Next molecule: `COc1ccc(-c2cc(C(F)F)nn2-c2ccc(S(N)(=O)=O)cc2)cc1F`
label 0
